system: human red blood cells; assay: PC biosynthesis of human RBC's; assay type: cell-based; conditions: 30 minutes incubation, 100 mM ethanol, 1 mM APAP, 1 mM THC, 10 mM allyl alcohol, 1 mM cocaine, 1 mM BTM, with and without 4-MP
measurement type: PC biosynthesis percent of control ± SEM

Worked examples, 5 molecules total:
molecule="CCCCCc1cc(O)c2c(c1)OC(C)(C)[C@@H]1CCC(C)=C[C@@H]21 [THC, Δ-9-tetrahydrocannabinol]" experimental_system="human red blood cells" measurement_type="PC biosynthesis percent of control ± SEM" obs_value="433 ± 30% of control"
molecule="COC(=O)[C@H]1[C@@H](OC(=O)c2ccccc2)C[C@@H]2CC[C@H]1N2C [cocaine]" experimental_system="human red blood cells" measurement_type="PC biosynthesis percent of control ± SEM" obs_value="292 ± 10% of control"
molecule="CCO [ethanol]" experimental_system="human red blood cells" measurement_type="PC biosynthesis percent of control ± SEM" obs_value="222 ± 9% of control"
molecule="C=CCO [allyl alcohol]" experimental_system="human red blood cells" measurement_type="PC biosynthesis percent of control ± SEM" obs_value="377 ± 3% of control"
molecule="CC(=O)Nc1ccc(O)cc1 [APAP, acetaminophen]" experimental_system="human red blood cells" measurement_type="PC biosynthesis percent of control ± SEM" obs_value="512 ± 27% of control"

Switching to the query record.
**Q:** Identify measured PC biosynthesis percent of control ± SEM associated with ClC(Cl)(Cl)Br [BTM, bromotrichloromethane]
**A:** 728 ± 3% of control

Every entry's value here was drawn from patent US6858399B2.
